pKd: −log10 of the molar value.
Here, molecules appear alongside pKd reported for PDHK2 (Homo sapiens) in the literature.

C[C@@](O)(C(=O)N1CCC(c2ccnn2-c2ccc(Cl)c(F)c2)CC1)C(F)(F)F = > 6.52
C[C@@](O)(C(=O)N1CCn2c(cnc2-c2ccc(F)cc2)C1)C(F)(F)F = > 6.52
C[C@@](O)(C(=O)N1CCC(c2cncn2-c2ccc(F)cc2)CC1)C(F)(F)F = > 6.52
C[C@@](O)(C(=O)N1CCC(c2ccnn2-c2ccc(C#N)cc2F)CC1)C(F)(F)F = > 6.52
C[C@@H]1CN(C(=O)[C@@](C)(O)C(F)(F)F)CC[C@@H]1N(C)C(=O)c1ccc(C(F)(F)F)cc1 = 7.36
C[C@@](O)(C(=O)N1CCn2c(cnc2-c2ccccc2)C1)C(F)(F)F = > 6.52
C[C@@](O)(C(=O)N1CCC(c2cncn2-c2ccc(C(F)(F)F)cc2)CC1)C(F)(F)F = > 6.52
C[C@@H]1CN(C(=O)[C@@](C)(O)C(F)(F)F)CC[C@@H]1N(C)C(=O)c1ccc(F)cc1 = 7.42
C[C@@](O)(C(=O)N1CCC(c2ccnn2-c2cccc(F)c2)CC1)C(F)(F)F = > 6.52
C[C@@H]1CN(C(=O)[C@@](C)(O)C(F)(F)F)CC[C@@H]1C(=O)N(C)c1ccc(Cl)cc1 = 7.59

Lab request: please report pKd under test system PDHK2 (Homo sapiens) for C[C@@](O)(C(=O)N1CCn2c(-c3ccccc3)cnc2C1)C(F)(F)F
> 6.52

Lab request: please report pKd under test system PDHK2 (Homo sapiens) for C[C@@](O)(C(=O)N1CCC(c2ccnn2-c2cccc(C#N)c2)CC1)C(F)(F)F
> 6.52

Lab request: please report pKd under test system PDHK2 (Homo sapiens) for CCN(C(=O)c1ccc(C)cc1F)C1CCN(C(=O)[C@@](C)(O)C(F)(F)F)CC1
7.16

Lab request: please report pKd under test system PDHK2 (Homo sapiens) for C[C@@](O)(C(=O)N1CCC(c2ccnn2-c2ncc(F)cc2F)CC1)C(F)(F)F
> 6.52

Lab request: please report pKd under test system PDHK2 (Homo sapiens) for C[C@@H]1CN(C(=O)[C@@](C)(O)C(F)(F)F)Cc2cn[nH]c21
> 6.52

Lab request: please report pKd under test system PDHK2 (Homo sapiens) for C[C@@](O)(C(=O)N1CCC(C2(c3nnc(-c4ccccc4)[nH]3)CC2)CC1)C(F)(F)F
6.96
